test system: Raji cells; assay: MTT cell viability assay on Raji cells; type: cell-based; conditions: Homo sapiens, 48 h, pure CPT, 2 days at 37° C.
pEC50: −log10 of the molar value.
measurementType: pEC50

Input line: Request the reported pEC50 associated with CC[C@@]1(O)C(=O)OCc2c1cc1n(c2=O)Cc2cc3ccccc3nc2-1 [CPT, camptothecin]
Output line: ~7.60

Origin of measurements: patent US20240423904A1
